- Tested on: Anopheles arabiensis
- assay.details: Larvicidal screening (WHO protocol), 3rd instar larvae
- Assay type: in vivo
- condition.context: Anopheles arabiensis, 24 h, read-out: Mortality 24 h
reported.endpoint: mortality at 4 µg/mL (%)

INSERT INTO results (compound, measurement_unit, result_value) VALUES
  ('COP(=S)(OC)Oc1ccc(Sc2ccc(OP(=S)(OC)OC)cc2)cc1 [Temephos, reference compound]', '%', 98.3),
  ('CCOC(=O)c1cc(C(=O)c2ccc(Br)cc2)n2ccc(C(=O)OC(C)C)cc12', '%', 82.3),
  ('COC(=O)c1c(C(=O)OC)c2cc(C(=O)OC(C)C)ccn2c1C(=O)c1ccc(C#N)cc1', '%', 62.4),
  ('CCOC(=O)c1cc(C(=O)c2ccc(C#N)cc2)n2ccc(C(=O)OC(C)C)cc12', '%', 61.6),
  ('CCOC(=O)c1cc(C(=O)c2ccc(F)cc2)n2ccc(C(=O)OC(C)C)cc12', '%', 87.3),
  ('CCOC(=O)c1cc(C(=O)c2ccccc2)n2ccc(C(=O)OC(C)C)cc12', '%', 32.6),
  ('COC(=O)c1c(C(=O)OC)c2cc(C(=O)OC(C)C)ccn2c1C(=O)c1ccc(F)cc1', '%', 79.1),
  ('COC(=O)c1c(C(=O)OC)c2cc(C(=O)OC(C)C)ccn2c1C(=O)c1ccc(Cl)cc1', '%', 67.9),
  ('CCOC(=O)c1cc(C(=O)c2ccc(Cl)cc2)n2ccc(C(=O)OC(C)C)cc12', '%', 66),
  ('COC(=O)c1c(C(=O)OC)c2cc(C(=O)OC(C)C)ccn2c1C(=O)c1ccccc1', '%', 39.2);

Ref: patent US11981674B1
